- Assay system: Ubiquitin carboxyl-terminal hydrolase 10 (Homo sapiens) (UniProt Q14694)
- Sequence (Q14694 whole entry, looked up): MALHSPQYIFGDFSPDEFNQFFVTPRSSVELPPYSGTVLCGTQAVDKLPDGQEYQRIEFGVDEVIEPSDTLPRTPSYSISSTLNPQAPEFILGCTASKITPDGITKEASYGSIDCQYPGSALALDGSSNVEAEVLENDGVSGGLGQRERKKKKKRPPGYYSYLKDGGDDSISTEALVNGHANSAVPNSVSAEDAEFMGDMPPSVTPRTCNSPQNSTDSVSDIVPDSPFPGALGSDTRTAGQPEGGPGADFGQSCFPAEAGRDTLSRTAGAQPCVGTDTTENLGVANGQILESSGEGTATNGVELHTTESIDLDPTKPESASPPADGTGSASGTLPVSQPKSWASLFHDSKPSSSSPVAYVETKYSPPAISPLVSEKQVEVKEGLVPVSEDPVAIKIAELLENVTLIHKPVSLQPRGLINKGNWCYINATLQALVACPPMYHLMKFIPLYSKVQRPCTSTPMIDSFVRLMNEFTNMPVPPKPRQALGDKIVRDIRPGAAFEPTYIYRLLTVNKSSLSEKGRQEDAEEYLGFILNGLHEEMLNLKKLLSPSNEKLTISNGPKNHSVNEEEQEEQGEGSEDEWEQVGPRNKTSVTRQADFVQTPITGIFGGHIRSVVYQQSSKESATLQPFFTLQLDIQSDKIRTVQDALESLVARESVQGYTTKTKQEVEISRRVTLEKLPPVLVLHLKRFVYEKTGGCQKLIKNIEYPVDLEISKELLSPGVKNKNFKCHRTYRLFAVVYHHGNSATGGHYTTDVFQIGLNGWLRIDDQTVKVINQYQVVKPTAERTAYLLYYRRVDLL
- Assay notes: ubiquitin-specific protease 10 DUB inhibitors, concentration-effect, biochemical, verification of primary screen actives (AID 1645863);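 further: potency values describe inhibition of USP10 cleavage of a fluorogenic ubiquitin substrate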
- Run conditions: USP10 deubiquitinase enzymatic assay
The source made the active and inactive calls. How the calls were made is not given here.
Return exactly one item of label 1 (active), label 0 (inactive)

Worked set:
• C=C/C(C)=C/[C@@]1(C)SC(=O)C(C)=C1O = label 1
• COC(=O)c1ccc(NC(=O)/C=C/c2ccc(F)cc2)cc1 = label 0
• Cc1cc(=O)[nH]c(SCC(=O)c2cc(C)n(CCC3=CCCCC3)c2C)c1C#N = label 0
• CCCCCCCCCCCCCCCc1cc(O)cc(O)c1C(=O)O = label 1
• O=C(/C=C/c1c(F)cccc1Cl)N1CCc2ccccc2C1 = label 0

# outcome recorded in this test, key = COc1ccc(NS(=O)(=O)c2cc(NC(=O)CC(=O)c3ccc([N+](=O)[O-])cc3)ccc2C)cc1 label 0

Now the molecule O=C(Nc1ccccc1)Nc1ccc(F)c(-c2nnc(-c3ccccc3)o2)c1 label 0

---

- Assay system: Ubiquitin carboxyl-terminal hydrolase 10 (Homo sapiens) (UniProt Q14694)
- Assay notes: ubiquitin-specific protease 10 DUB inhibitors, concentration-effect, biochemical, verification of primary screen actives (AID 1645863)
- Run conditions: USP10 deubiquitinase enzymatic assay
Activity calls are given as the source filed them. No rule for the calls is given here.
Return exactly one item of active, inactive

- O=C(/C=C/c1ccc(F)cc1)N1CCc2ccccc2C1: inactive
- COc1cc(-c2ccccc2)c(O)c(O)c1-c1ccccc1: active
- COc1ccc2cc(C(=O)N3CCC(C(C)C(=O)NCc4cccc(F)c4)CC3)[nH]c2c1 (stereo unspecified): active
- O=C(NCc1ccc2c(c1)OCO2)c1[nH]nc2c1COc1ccccc1-2: active
- O=C(c1cc(Cl)c(Cl)[nH]1)c1cc(Cl)cc(Cl)c1O: active

From here, focus on the item given below.
# outcome recorded in this test, key = Cn1cc(NC(=O)Nc2cccc3ccccc23)c2ccccc21 inactive

---

- Assay system: Ubiquitin carboxyl-terminal hydrolase 10 (Homo sapiens) (UniProt Q14694)
- Assay notes: ubiquitin-specific protease 10 DUB inhibitors, concentration-effect, biochemical, verification of primary screen actives (AID 1645863)
- Run conditions: USP10 deubiquitinase enzymatic assay
Calls of active or inactive are those of the source. No rule for the calls is given here.
Return exactly one item of 1.0 (active), 0.0 (inactive)

• O=C(CNC(=O)c1ccc2nc(-n3cccc3)sc2c1)NCc1ccccc1 = 0.0
• COc1ccccc1Nc1ncc(C(=O)NCc2ccc(F)cc2)c2ccccc12 = 0.0
• CCn1c(SCC(=O)Nc2ccc(C)c(Cl)c2)nnc1-c1ccc2c(c1)OCCO2 = 0.0

# outcome recorded in this test, key = CS(=O)(=O)c1cccc(C(=O)Nc2sc3c(c2C(N)=O)CCCC3)c1 0.0

Now the molecule Cc1cc(OCC(=O)Nc2ccccc2C(=O)Nc2ccccc2)ccc1Cl 1.0

Now the molecule Cc1cccc(C)c1NC(=O)COc1ccccc1-c1nnc(-c2ccccc2)o1 0.0

Now the molecule O=C(CSc1nnc2ccc3ccccc3n12)c1ccc(Cl)cc1 0.0

Now the molecule Fc1ccccc1-c1nc2c3cnn(-c4ccccc4)c3ncn2n1 0.0

Now the molecule O=C(NCc1ccc(Cl)cc1)c1cc2c(s1)-c1ccccc1OC2 0.0

---

- Assay system: Ubiquitin carboxyl-terminal hydrolase 10 (Homo sapiens) (UniProt Q14694)
- Assay notes: ubiquitin-specific protease 10 DUB inhibitors, concentration-effect, biochemical, verification of primary screen actives (AID 1645863)
- Run conditions: USP10 deubiquitinase enzymatic assay
The source made the active and inactive calls. No rule for the calls is given here.
Return exactly one item of active, inactive

• COc1cccc(C(=O)Nc2ccc(SC(C(=O)Nc3ccccc3)c3ccccc3)cc2)c1 (configuration not stated) = inactive

From here, focus on the item given below.
# outcome recorded in this test, key = COc1ccc(-c2nc(-c3cn(-c4ccccc4)nn3)no2)c(OC)c1 inactive

---

- Assay system: Ubiquitin carboxyl-terminal hydrolase 10 (Homo sapiens) (UniProt Q14694)
- Assay notes: ubiquitin-specific protease 10 DUB inhibitors, concentration-effect, biochemical, verification of primary screen actives (AID 1645863);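 further: potency values describe inhibition of USP10 cleavage of a fluorogenic ubiquitin substrate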
- Run conditions: USP10 deubiquitinase enzymatic assay
Calls of active or inactive are those of the source. How the calls were made is not given here.
Return exactly one item of active, inactive

Worked set:
- Cc1ccc(CNC(=O)c2ccc3nn(CC(=O)Nc4ccccc4F)c(=O)n3c2)cc1: inactive
- CCc1ccc(-n2cc(OC(C)=O)c3c2nc(C)n2c4ccccc4nc32)cc1: inactive
- CCOc1ccc(-n2c(SCC(=O)Nc3ccc(C)cc3)nnc2-c2c[nH]c3ccccc23)cc1: active
- CC(c1ccccc1)N1CC(O)=C(c2nc3ccccc3s2)C1=N (configuration not stated): inactive
- O=C(NC1(O)C(=O)c2ccccc2C1=O)c1ccc(-c2csnn2)cc1: active

# outcome recorded in this test, key = Cc1ccc(-c2cc(=O)n(CC(=O)Nc3ccc(C(C)C)cc3)cn2)cc1 inactive

Now the compound CCCN1CCN(C(=O)Cn2c(C)ccc(NC(=O)c3ccccc3)c2=O)CC1 inactive

Now the compound Cc1ccc(C(=O)NC(C)c2ccccc2)cc1NC(=O)c1nsc2ccccc12 (configuration not stated) active

Now the compound COc1ccc(-c2cc3c(=O)n(CC(=O)NCc4ccccc4)ncn3n2)cc1 inactive

Now the compound COc1cc(OC)c2c(c1)C(=O)C1=C(COC(C)(O)C1)C2=O (configuration not stated) inactive

Now the compound Cn1c(=O)c(C(=O)Nc2ccc(Br)cc2)nc2ccccc21 active

Now the compound COc1ccccc1CNC(=O)C1c2ccccc2C(=O)N1Cc1ccccc1C (configuration not stated) inactive

---

- Assay system: UniProtKB Q14694
- Assay notes: ubiquitin-specific protease 10 DUB inhibitors, concentration-effect, biochemical, verification of primary screen actives (AID 1645863);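 further: potency values describe inhibition of USP10 cleavage of a fluorogenic ubiquitin substrate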
- Run conditions: USP10 deubiquitinase enzymatic assay
Activity calls are given as the source filed them. How the calls were made is not given here.
Return exactly one item of True for active, False for inactive

- Cc1ccc(C)c(NC(=O)Cn2cc(C(=O)C3CC3)c3ccccc32)c1: True
- COC(=O)c1ccc2c(=O)n(CCCCCC(=O)NCCc3ccccc3Cl)c(=O)[nH]c2c1: False
- O=C(NCCc1ccccc1)c1ccc2c(=O)n(Cc3ccco3)c(=O)n(Cc3cccc([N+](=O)[O-])c3)c2c1: True
- COc1ccc(NC(=O)Cn2cc(C(=O)c3ccc(F)cc3)c(=O)c3cc(C)ccc32)cc1OC: False
- Cc1ccc(C(=O)c2cn(CC(=O)Nc3ccc4c(c3)OCO4)c3ccccc3c2=O)cc1: True
- Cn1c(=O)n(CCc2ccccc2)c(=O)c2c1nc1n2CCN1Cc1ccccc1: False
- COc1ccc2nc(N3CC(C(=O)Nc4ccc(C(N)=O)cc4)C3)sc2c1: False
- Cc1noc(/C=C/Nc2cc(Cl)cc(Cl)c2)c1[N+](=O)[O-]: False
- O=C(NCC1(c2ccccc2)CCC1)c1nc2n(n1)-c1ccccc1S(=O)(=O)N2: True
- CCOc1ccc(-n2ccnc(SCC(=O)Nc3ccccc3F)c2=O)cc1: True

# outcome recorded in this test, key = COc1cc(Cl)c(C)cc1NC(=O)Cn1c(=O)n(CC(=O)NCc2ccco2)c(=O)c2ccccc21 True

Now the molecule Cc1cccc(C(=O)Nc2cccc(SC(C(=O)Nc3ccc(Cl)c(C(=O)O)c3)c3ccccc3)c2)c1 (stereo not given) True

Now the molecule O=C(CC1C(=O)Nc2nc(-c3ccccc3)nn21)Nc1cccc2ccccc12 (stereo not given) True

Now the molecule COc1cc2c(c(OC)c1OC)-c1ccc(NCCc3cccc(F)c3)c(=O)cc1[C@@H](NC(C)=O)CC2 False

Now the molecule CSc1cccc(NC(=O)c2cc(-c3cccnc3)n[nH]2)c1 False

Now the molecule CCCn1c(=O)c(-c2ccc(C(=O)NCc3ccc(OC)cc3)cc2)nc2cccnc21 False

Now the molecule Cc1cccc2nc(CSc3nc4ccc([N+](=O)[O-])cc4[nH]3)cn12 True

Now the molecule O=C(NCCc1nc2ccccc2n1CCOc1ccccc1Cl)C1CCCCC1 True

Now the molecule COc1ccc(Cn2nc(C)cc2NC(=O)c2cccc(F)c2)cc1OC False

---

- Assay system: UniProtKB Q14694
- Assay notes: ubiquitin-specific protease 10 DUB inhibitors, concentration-effect, biochemical, verification of primary screen actives (AID 1645863);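 further: potency values describe inhibition of USP10 cleavage of a fluorogenic ubiquitin substrate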
- Run conditions: USP10 deubiquitinase enzymatic assay
The source made the active and inactive calls. No rule for the calls is given here.
Quantity kind: IC50

- Cc1cc(NC(=O)Cn2c(=O)n(CCCCC(=O)NCc3ccco3)c(=O)c3ccccc32)ccc1Br: 14.6 µM
- Cc1ccc(S(=O)(=O)NCc2ccc(C(=O)NCCc3ccc(S(N)(=O)=O)cc3)cc2)cc1: > 40 µM (inactive)
- Cn1nc(Cl)c(Cl)c1Oc1ccc(S(=O)(=O)Nc2ccc(Oc3ccc(C(F)(F)F)cn3)c(Cl)c2)cc1: 13 µM
- Cn1c(=O)c(-c2ccc(C(=O)NCc3cccc(Cl)c3)cc2)nc2cccnc21: > 40 µM (inactive)

# context switch: different molecule, same IC50
Any idea what IC50 came out for O=C(NC(Cc1ccccc1)c1nc2ccccc2[nH]1)C1CC1 (stereo not given) on UniProtKB Q14694? > 40 µM (inactive)
